# ASSAYED_SYSTEM: human Mnk2a (Homo sapiens, UniProt Q9HBH9)
# Construct: made in house; host or cells: E. coli BL21 (vector pGEX-4T1)
# Sequence (Q9HBH9 whole entry): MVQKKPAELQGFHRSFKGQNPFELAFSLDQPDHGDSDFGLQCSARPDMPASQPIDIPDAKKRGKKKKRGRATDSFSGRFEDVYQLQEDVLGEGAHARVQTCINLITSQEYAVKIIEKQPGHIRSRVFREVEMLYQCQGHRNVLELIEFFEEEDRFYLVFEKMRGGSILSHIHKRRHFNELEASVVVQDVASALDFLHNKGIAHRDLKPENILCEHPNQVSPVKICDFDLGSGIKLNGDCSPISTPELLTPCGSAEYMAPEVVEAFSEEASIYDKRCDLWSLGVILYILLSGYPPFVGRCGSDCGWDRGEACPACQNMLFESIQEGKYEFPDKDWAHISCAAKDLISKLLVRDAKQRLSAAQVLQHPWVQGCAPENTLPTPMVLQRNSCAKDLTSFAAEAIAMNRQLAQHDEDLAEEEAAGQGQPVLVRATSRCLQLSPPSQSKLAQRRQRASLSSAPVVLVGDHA
# METHOD_SUMMARY: Mnk2a in vitro kinase assay (indirect fluorescence polarization)
# Format: biochemical
# RECORDED_CONDITIONS: GST-Mnk2a pre-activated with ERK2, 20 μM ATP, 30 μM substrate peptide; read-out: MNK2 IC50
pIC50: −log10 of the molar value.
OBSERVED_PROPERTY: pIC50

| COMPOUND | ASSAYED_SYSTEM | pIC50 |
| --- | --- | --- |
| Cc1c(C(=O)NCCn2ccnc2)sc2ncnc(Nc3ccc(F)cc3OC3CCOCC3)c12 | human Mnk2a (Homo sapiens, UniProt Q9HBH9) | 7.24 |

(I) Cc1c(C(=O)NCc2nccs2)sc2ncnc(Nc3ccc(F)cc3OC3CCCNC3)c12 (stereo not shown)
(II) Cc1c(C(N)=O)sc2ncnc(Nc3ccc(F)cc3OC3CCN(C(=O)CN(C)C)C3)c12 (stereo not shown)
(III) Cc1c(C(=O)NCCCN(C)C)sc2ncnc(Nc3ccc(F)cc3O[C@@H]3CCCOC3)c12
Ask | Order these by pIC50, descending, and give the full ranking. Please reply with the labels ordered as requested. Many thanks.
Reply | III, I, II

(P) COCCNC(=O)c1sc2ncnc(Nc3ccc(F)cc3O[C@H]3CCCNC3)c2c1C
(Q) Cc1c(C(=O)N[C@H]2CCN(C(=O)OC(C)(C)C)C[C@@H]2O)sc2ncnc(Nc3ccc(F)cc3OC3CCOCC3)c12
Ask | I'd appreciate it if you could identify which of P and Q has the greater pIC50. Use the label to indicate which entry you chose.
Reply | Q

(A) Cc1c(C(=O)NC2CCN(C)CC2)sc2ncnc(Nc3ccc(F)cc3O[C@H]3CCOC3)c12
(B) Cc1c(C(=O)NC2(CO)CC2)sc2ncnc(Nc3ccc(F)cc3OC3CCOCC3)c12
Ask | Record comparison, field pIC50: mark the lower of A and B . Use the label to indicate which entry you chose.
Reply | B
(B: 7.20, A: 7.40)

---

# ASSAYED_SYSTEM: human Mnk2a (Homo sapiens, UniProt Q9HBH9)
# METHOD_SUMMARY: Mnk2a in vitro kinase assay (indirect fluorescence polarization)
# RECORDED_CONDITIONS: GST-Mnk2a pre-activated with ERK2, 20 μM ATP, 30 μM substrate peptide; read-out: MNK2 IC50
pIC50: −log10 of the molar value.
OBSERVED_PROPERTY: pIC50

| MOLECULE | OBSERVED_PROPERTY | REPORTED_RESULT |
| --- | --- | --- |
| Cc1c(C(=O)NC2CCN(C)C2)sc2ncnc(Nc3ccc(F)cc3OC3CCOCC3)c12 (centres unmarked) [Example 177] | pIC50 | 7.17 |

(I) Cc1c(C(=O)NCCCO)sc2ncnc(Nc3ccc(F)cc3O[C@H]3CCCNC3)c12 [Example 16]
(II) CNCCNC(=O)c1sc2ncnc(Nc3ccc(F)cc3OC3CCOCC3)c2c1C [Example 146]
(III) Cc1c(C(N)=O)sc2ncnc(Nc3ccc(C(F)(F)F)cc3O[C@H]3CCCNC3)c12 [Example 65]
(IV) Cc1c(C(N)=O)sc2ncnc(Nc3ccc(F)cc3OC3CCN(S(C)(=O)=O)C3)c12 (centres unmarked) [Example 89]
Ask | Order these by pIC50, descending, and give the full ranking. Please reply with the labels ordered as requested. Many thanks.
Reply | IV, I, II, III

(P) CONC(=O)c1sc2ncnc(Nc3ccc(F)cc3O[C@@H]3CCOC3)c2c1C [Example 102]
(Q) Cc1c(C(N)=O)sc2ncnc(Nc3ccc(F)cc3O[C@@H]3CCCN(CCC(F)(F)F)C3)c12 [Example 79]
Ask | I'd appreciate it if you could identify which of P and Q has the greater pIC50. Use the label to indicate which entry you chose.
Reply | Q
(Q: 7.92, P: 7.49)

(1) Cc1c(C(=O)NC2CCN(C)CC2)sc2ncnc(Nc3ccc(F)cc3O[C@@H]3CCCOC3)c12 [Example 259]
(2) Cc1c(C(=O)NCC2CN(C)CCO2)sc2ncnc(Nc3ccc(F)cc3O[C@H]3CCOC3)c12 (some centres unmarked) [Example 110]
Ask | I'd appreciate it if you could identify which of 1 and 2 has the greater pIC50. Use the label to indicate which entry you chose.
Reply | 2

(a) Cc1c(C(=O)NCCCCO)sc2ncnc(Nc3ccc(F)cc3OC3CCOCC3)c12 [Example 155]
(b) Cc1c(C(N)=O)sc2ncnc(Nc3ccc(F)cc3O[C@H]3CCCN(CCC#N)C3)c12 [Example 3]
Ask | I'd appreciate it if you could identify which of a and b has the greater pIC50. Use the label to indicate which entry you chose.
Reply | a

(I) COc1ccc(CNC(=O)c2sc3ncnc(Nc4ccc(F)cc4OC4CCCNC4)c3c2C)cc1 (centres unmarked) [Example 45]
(II) Cc1c(C(=O)NCCc2cn[nH]c2O)sc2ncnc(Nc3ccc(F)cc3OC3CCOCC3)c12 [Example 195]
Ask | I'd appreciate it if you could identify which of I and II has the greater pIC50. Use the label to indicate which entry you chose.
Reply | I

---

# ASSAYED_SYSTEM: human Mnk2a (Homo sapiens)
# Construct: made in house; host or cells: E. coli BL21 (vector pGEX-4T1)
# METHOD_SUMMARY: Mnk2a in vitro kinase assay (indirect fluorescence polarization)
# Type: biochemical
# RECORDED_CONDITIONS: GST-Mnk2a pre-activated with ERK2, 20 μM ATP, 30 μM substrate peptide; read-out: MNK2 IC50
pIC50: −log10 of the molar value.
OBSERVED_PROPERTY: pIC50

As a guide, the following entries are already answered.
| COMPOUND | pIC50 |
| --- | --- |
| Cc1c(C(=O)NCc2ccncc2)sc2ncnc(Nc3ccc(F)cc3OC3CCOCC3)c12 | 7.42 |
| Cc1c(C(=O)NCCCN(C)CCN(C)C)sc2ncnc(Nc3ccc(F)cc3OC3CCOCC3)c12 | 7.59 |
| Cc1c(C(=O)N[C@H]2C[C@H]2N)sc2ncnc(Nc3ccc(F)cc3OC3CCOCC3)c12 | 7.15 |
| Cc1c(C(N)=O)sc2ncnc(Nc3ccc(F)cc3O[C@@H]3CCCN(CCO)C3)c12 | 7.70 |

(a) Cc1c(C(=O)NCC2CCOCC2)sc2ncnc(Nc3ccc(F)cc3OC3CCOCC3)c12
(b) Cc1c(C(=O)NO)sc2ncnc(Nc3ccc(F)cc3OC3CCOCC3)c12
Ask | I'd appreciate it if you could identify which of a and b has the greater pIC50. Use the label to indicate which entry you chose.
Reply | b

---

# ASSAYED_SYSTEM: human Mnk2a (Homo sapiens, UniProt Q9HBH9)
# METHOD_SUMMARY: Mnk2a in vitro kinase assay (indirect fluorescence polarization)
# RECORDED_CONDITIONS: GST-Mnk2a pre-activated with ERK2, 20 μM ATP, 30 μM substrate peptide; read-out: MNK2 IC50
# Description: Inhibitory potency of compounds against Mnk1, Mnk2a and other kinases was assessed with assays based on a format known to those skilled in the art as the indirect (competitive) fluorescence polarization. The assay detection system comprises a small fluorophore-labeled phospho-peptide (termed ligand) bound to a phospho-specific antibody. The product generated by the kinase reaction competes with the ligand for antibody binding. […]
pIC50: −log10 of the molar value.
OBSERVED_PROPERTY: pIC50

As a guide, the following entries are already answered.
| MOLECULE | ASSAYED_SYSTEM | pIC50 |
| --- | --- | --- |
| Cc1c(C(=O)NCCCc2ccncc2)sc2ncnc(Nc3ccc(F)cc3OC3CCCNC3)c12 (stereo not shown) | human Mnk2a (Homo sapiens, UniProt Q9HBH9) | 7.31 |
| CC(=O)NCCNC(=O)c1sc2ncnc(Nc3ccc(F)cc3OC3CCOCC3)c2c1C | human Mnk2a (Homo sapiens, UniProt Q9HBH9) | 7.31 |

(I) Cc1c(C(=O)NCC[S+](C)[O-])sc2ncnc(Nc3cccnc3OC3CCOCC3)c12 (stereo not shown)
(II) Cc1c(C(=O)NCC(C)(C)Cl)sc2ncnc(Nc3ccc(F)cc3OC3CCCNC3)c12 (stereo not shown)
Ask | I'd appreciate it if you could identify which of I and II has the greater pIC50. Use the label to indicate which entry you chose.
Reply | I
(I: 7.40, II: 7.12)

---

# ASSAYED_SYSTEM: human Mnk2a (Homo sapiens, UniProt Q9HBH9)
# Construct: made in house; host or cells: E. coli BL21 (vector pGEX-4T1)
# METHOD_SUMMARY: Mnk2a in vitro kinase assay (indirect fluorescence polarization)
# Assay type: biochemical
# RECORDED_CONDITIONS: GST-Mnk2a pre-activated with ERK2, 20 μM ATP, 30 μM substrate peptide; read-out: MNK2 IC50
pIC50: −log10 of the molar value.
OBSERVED_PROPERTY: pIC50

| MOLECULE_SMILES | pIC50 |
| --- | --- |
| Cc1c(C(=O)NCCC(=O)N(C)C)sc2ncnc(Nc3ccc(F)cc3OC3CCOCC3)c12 | 7.37 |
| CC(=O)N1CCC[C@@H](Oc2cc(F)ccc2Nc2ncnc3sc(C(N)=O)c(C)c23)C1 | 6.92 |
| Cc1c(C(=O)NCC#CCN)sc2ncnc(Nc3ccc(F)cc3OC3CCOCC3)c12 | 7.80 |
| Cc1c(C(=O)NS(C)(=O)=O)sc2ncnc(Nc3ccc(F)cc3O[C@@H]3CCOC3)c12 | 7.96 |
| Cc1c(C(N)=O)sc2ncnc(Nc3ccc(F)cc3O[C@@H]3CCCN(S(C)(=O)=O)C3)c12 | 8.70 |
| Cc1c(C(=O)NCCCN2CCOCC2)sc2ncnc(Nc3ccc(F)cc3OC3CCOCC3)c12 | 7.51 |

(1) Cc1c(C(=O)N[C@H]2CCCC[C@@H]2O)sc2ncnc(Nc3ccc(F)cc3OC3CCOCC3)c12
(2) Cc1c(C(N)=O)sc2ncnc(Nc3ccc(F)cc3O[C@@H]3CCCN(Cc4cccn4C)C3)c12
Ask | Record comparison, field pIC50: mark the lower of 1 and 2 . Use the label to indicate which entry you chose.
Reply | 1
